Origin of values: PubChem BioAssay (NCI)

# Tested on: T-47D breast
# PROTOCOL_DETAILS: NCI-60 one-dose screen, 48 h
# MEASUREMENT_PARAMETERS: 10 µM unless noted
This is part of a sample that, as a whole, favours compounds with a hit. Of some 83,000 tested, about 20% had one in any assay. Active and inactive are the calls of the source. Rule for the calls: active = growth percent below 10; inactive = the rest.
Labels: active, inactive

MOLECULE: CC1(C)CC2=C3C=C[C@@H]4[C@@]5(C)CCC(=O)C(C)(C)[C@@H]5CC[C@@]4(C)[C@]3(C)CC[C@@]2(C(=O)O)C[C@H]1O
SUBJECT_OF_TEST: T-47D breast
CLASS_ASSIGNMENT: inactive
--
MOLECULE: O=C(CCCCCNC(=O)c1cc(=O)c(O)co1)Nc1ccccc1
SUBJECT_OF_TEST: T-47D breast
CLASS_ASSIGNMENT: inactive
--
MOLECULE: COCCn1cc(-c2csc(-c3c[nH]c4ccc(Br)cc34)n2)c2cccnc21
SUBJECT_OF_TEST: T-47D breast
CLASS_ASSIGNMENT: active
--
MOLECULE: CCOC(=O)C1=C(C)C(Cl)=N/C1=C\c1[nH]c(Cl)c(C)c1C(=O)OCC
SUBJECT_OF_TEST: T-47D breast
CLASS_ASSIGNMENT: inactive
--
MOLECULE: c1ccc(CCNc2c3ccccc3nc3ccccc23)cc1
SUBJECT_OF_TEST: T-47D breast
CLASS_ASSIGNMENT: inactive
--
MOLECULE: Cc1ccc(/C=C/C(=O)Nc2ncc(Cc3ccc(F)cc3)s2)o1
SUBJECT_OF_TEST: T-47D breast
CLASS_ASSIGNMENT: inactive
--
MOLECULE: CCOC(=O)C(Cc1ccc(OC)cc1)C(=O)OCC
SUBJECT_OF_TEST: T-47D breast
CLASS_ASSIGNMENT: inactive
--
MOLECULE: Cc1[nH]c(C2CC(c3ccc(C(F)(F)F)c(F)c3)=NN2c2ccccc2)c(C)c1C(=O)NCC(F)(F)F (stereo not given)
SUBJECT_OF_TEST: T-47D breast
CLASS_ASSIGNMENT: inactive
--
MOLECULE: COC(=O)c1c2c(n3ccccc13)C(=O)c1ccccc1C2=O
SUBJECT_OF_TEST: T-47D breast
CLASS_ASSIGNMENT: inactive
--
MOLECULE: COc1ccc(C(=O)Cn2c(C(=O)c3ccc(Cl)cc3)nc3ccccc32)cc1
SUBJECT_OF_TEST: T-47D breast
CLASS_ASSIGNMENT: inactive
--
MOLECULE: COc1ccc(-c2cc(-c3ccccc3)nc(N3CCN(CCNc4ccnc5cc(Cl)ccc45)CC3)n2)cc1
SUBJECT_OF_TEST: T-47D breast
CLASS_ASSIGNMENT: active
--
MOLECULE: Fc1ccc2[nH]cc(-c3nc(-c4c[nH]c5ccncc45)cs3)c2c1
SUBJECT_OF_TEST: T-47D breast
CLASS_ASSIGNMENT: active
--
MOLECULE: CC1CCN(C(=S)SCC(=O)NC(=O)c2ccccc2)CC1
SUBJECT_OF_TEST: T-47D breast
CLASS_ASSIGNMENT: inactive
--
MOLECULE: O=C(N=Nc1c(O)[nH]c2ccccc12)Nc1ccc(F)cc1
SUBJECT_OF_TEST: T-47D breast
CLASS_ASSIGNMENT: inactive
--
MOLECULE: Cc1ccc(S(=O)(=O)N2CCC(=O)c3ccccc32)cc1
SUBJECT_OF_TEST: T-47D breast
CLASS_ASSIGNMENT: inactive
--
MOLECULE: COC(=O)c1nc(-c2ccccc2)oc1S(=O)(=O)NCC(c1ccc(Cl)cc1)N1CCOCC1 (stereo not given)
SUBJECT_OF_TEST: T-47D breast
CLASS_ASSIGNMENT: inactive
--
MOLECULE: COc1ccc(C(=S)N2CCN(c3ccc(Cl)cc3)CC2)cc1
SUBJECT_OF_TEST: T-47D breast
CLASS_ASSIGNMENT: inactive
--
MOLECULE: CCNC(=O)Oc1ccc(/C(=C(/CC)Cc2ccccc2)c2ccc(OCCN3CCCC3)cc2)cc1
SUBJECT_OF_TEST: T-47D breast
CLASS_ASSIGNMENT: inactive
--
MOLECULE: CN(C)c1ccc(-c2ccc3c(c2)c(-c2ccccc2)nc(=O)n3C)cn1
SUBJECT_OF_TEST: T-47D breast
CLASS_ASSIGNMENT: inactive
--
MOLECULE: CCCCC#Cc1c(I)n(C)c(=O)[nH]c1=O
SUBJECT_OF_TEST: T-47D breast
CLASS_ASSIGNMENT: active
--
MOLECULE: Cc1ccc(Cl)cc1NC(=O)c1sc2nc3c(cc2c1N)C(=O)CCC3
SUBJECT_OF_TEST: T-47D breast
CLASS_ASSIGNMENT: inactive
--
MOLECULE: C[C@H](CCCC(=O)NCC#CCN1CCN(C)CC1)[C@H]1CC[C@H]2[C@@H]3CC[C@@H]4CC(=O)CC[C@]4(C)[C@H]3CC[C@]12C
SUBJECT_OF_TEST: T-47D breast
CLASS_ASSIGNMENT: inactive
--
MOLECULE: Cc1nc2sc(C(=O)Nc3cccc(Br)c3C)c(N)c2cc1C(O)c1ccccc1 (stereo not given)
SUBJECT_OF_TEST: T-47D breast
CLASS_ASSIGNMENT: inactive
--
MOLECULE: N#Cc1cccc(C2C3=C(COC3=O)N(CCO)c3cc4c(cc32)CCC4)c1 (stereo not given)
SUBJECT_OF_TEST: T-47D breast
CLASS_ASSIGNMENT: inactive
--
MOLECULE: CCCCNc1cc(-c2cn[nH]c2-c2cc(C)cc(OC)c2)nc(-c2cccnc2)n1
SUBJECT_OF_TEST: T-47D breast
CLASS_ASSIGNMENT: inactive
